system: LoVo; test: Cell viability (CellTiterGlo, 72 h), Example 1; format: cell-based; conditions: Homo sapiens, single agent, read-out: Cmpd. B IC50
TEST READOUT: IC50 (nM)
Value expressed in nM; do not type the unit.

Entry under review: Cn1cnc2c(F)c(Nc3ccc(Br)cc3F)c(C(=O)NOCCO)cc21 . Reported IC50?
148

====

system: CW-2; experiment: Cell viability (CellTiterGlo, 72 h), Example 1; format: cell-based; conditions: Homo sapiens, single agent, read-out: Cmpd. B IC50
TEST READOUT: IC50

Request body: readout IC50, system CW-2, query Cn1cnc2c(F)c(Nc3ccc(Br)cc3F)c(C(=O)NOCCO)cc21 [COMPOUND B] . Return the value.
> 2700 nM
